Biological target: SCD5 (Homo sapiens, UniProt Q86SK9)
Construct: host or cells: S. cerevisiae ole1Δ strain (W303 pdr1Δ pdr3Δ background), plasmid pRS316 with TDH3 promoter and CYC1 terminator
Sequence (Q86SK9 1-330): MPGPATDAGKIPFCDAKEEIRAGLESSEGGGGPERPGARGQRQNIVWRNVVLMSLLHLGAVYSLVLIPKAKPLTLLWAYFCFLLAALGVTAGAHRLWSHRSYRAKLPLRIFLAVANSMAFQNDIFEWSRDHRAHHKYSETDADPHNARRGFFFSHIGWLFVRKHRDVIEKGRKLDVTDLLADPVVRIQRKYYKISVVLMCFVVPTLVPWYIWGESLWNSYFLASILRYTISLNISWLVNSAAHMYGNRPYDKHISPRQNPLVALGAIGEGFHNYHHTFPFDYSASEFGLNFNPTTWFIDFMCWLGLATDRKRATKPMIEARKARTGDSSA
Experiment: Growth inhibition of humanized yeast strain expressing SCD5 as sole desaturase
Format: cell-based
Details: humanized yeast strain expressing SCD5
pIC50: −log10 of the molar value.
Consider the following compounds and their measured pIC50 readings.

- compound: "Cc1nn(C)c2cc(-c3nsc(C4CCN(C(=O)CNC(=O)c5ccccn5)CC4)n3)ccc12"
  reading qualifier: "="
  pIC50: 4.39
- compound: "Cc1nn(C)c2cc(-c3noc(C4CCN(C(=O)C5CC(=O)N(c6ccccc6)C5)CC4)n3)ccc12 (centres unmarked)"
  reading qualifier: "<"
  pIC50: 4.35
- compound: "Cc1nn(C)c2cc(-c3noc([C@H]4CC[C@H](O)CC4)n3)ccc12"
  reading qualifier: "<"
  pIC50: 4.35
- compound: "Cc1nn(C)c2cc(-c3noc(N4CCN(C(=O)c5cc(-c6ccccc6)no5)CC4)n3)ccc12"
  reading qualifier: "<"
  pIC50: 4.35
- compound: "COc1cc(-c2noc(C3CCN(C(=O)CNC(=O)c4ccccc4)CC3)n2)ccc1OC1CC1"
  reading qualifier: "="
  pIC50: 4.38
- compound: "CC(C)n1ncc2ccc(-c3noc(N4CCN(C(=O)c5ccccc5)CC4)n3)cc21"
  reading qualifier: "<"
  pIC50: 4.35
- compound: "COc1ccc(-c2noc(N3CCC(C(=O)N4CCCCC4)CC3)n2)cc1OC"
  reading qualifier: "="
  pIC50: 4.39
- compound: "CC(C)(CO)n1cc2ccc(-c3noc(C4CCN(C(=O)C5CC(=O)N(c6ccccc6)C5)CC4)n3)cc2n1 (centres unmarked)"
  reading qualifier: "="
  pIC50: 4.48
- compound: "COc1cccc(-c2noc(C3CCN(C(=O)[C@@H]4CC(=O)N(c5ccc(C)c(C)c5)C4)CC3)n2)c1 (single isomer, unassigned)"
  reading qualifier: "<"
  pIC50: 4.35
- compound: "CCc1cnc(N2CCC(c3nc(-c4ccc5c(C)nn(C)c5c4)no3)CC2)cn1"
  reading qualifier: "<"
  pIC50: 4.35
- compound: "COc1ccc(-c2noc(C3CCN(C(=O)C(C)(C)NC(=O)c4ccccc4)CC3)n2)cc1OC"
  reading qualifier: "<"
  pIC50: 4.35
- compound: "CC1(C)CC(=O)c2c(O)cc(OCC(=O)NCCc3nc(-c4ccccc4)no3)cc2O1"
  reading qualifier: "="
  pIC50: 4.40
- compound: "Cn1ncc2ccc(-c3noc(C4CCNCC4)n3)cc21"
  reading qualifier: "<"
  pIC50: 4.35
- compound: "CC(C)n1ncc2ccc(-c3nc(C4CCN(C(=O)c5cccc(F)c5)CC4)no3)cc21"
  reading qualifier: "="
  pIC50: 6.09
- compound: "Cc1nn(C)c2cc(-c3noc(C4CCN(C(=O)CNC(=O)c5ccc(Cl)cn5)CC4(F)F)n3)ccc12 (centres unmarked)"
  reading qualifier: "="
  pIC50: 6.05
- compound: "CCOc1ccc(-c2noc(C3CCN(C(=O)[C@@H]4CN(c5ccccc5)C(=O)O4)CC3)n2)cc1OC"
  reading qualifier: "="
  pIC50: 4.39
- compound: "Cc1nn(C)c2cc(-c3noc(C4CCN(C(=O)[C@H](NC(=O)c5ccccc5)C5CC5)CC4)n3)ccc12"
  reading qualifier: "<"
  pIC50: 4.35
- compound: "CC(C)n1ncc2ccc(-c3noc(C4CCN(C(=O)CNC(=O)C5CC5)CC4(F)F)n3)cc21 (centres unmarked)"
  reading qualifier: "<"
  pIC50: 4.35
- compound: "CCOc1ncc(-c2noc(C3CCN(C(=O)CN4Cc5ccccc5C4=O)CC3)n2)cc1OC"
  reading qualifier: "<"
  pIC50: 4.35
- compound: "Cc1nn(C)c2cc(-c3nc(C4CCN(C(=O)C5CC(=O)N(c6cccc(C#N)c6)C5)CC4)no3)ccc12 (centres unmarked)"
  reading qualifier: "<"
  pIC50: 4.35
